Origin of measurements: BindingDB's records for doi:10.1021/jm950639r

Collected IC50 values appear next to each entry.
# Target Desc: Gag-Pol polyprotein [588-1127,L687I]/[588-1147,L687I] (Human immunodeficiency virus 1, UniProt P04585, L687I)
# Construct: 588-1127; 588-1147
# Protocol: HIV-1 RT Assay
# Condition Parameters: pH 7.8; 37 °C

{"Smiles String": "CNC(=O)c1ccc(F)c(CC/N=C(\\S)Nc2ccc(Br)cn2)c1F", "IC50": "> 2000 nM"}

// next entry
Lab book: IC50 of CC(=O)NCc1ccc(F)c(CCNC(=S)Nc2ccc(Br)cn2)c1F noted as > 2000 nM

---

Let's look at some compounds and their measured pIC50.
# Target Desc: Gag-Pol polyprotein [588-1127,Y768C]/[588-1147,Y768C] (Human immunodeficiency virus 1, UniProt P04585, Y768C)
# Construct: 588-1127; 588-1147
# Protocol: HIV-1 RT Assay
Please keep in mind that pIC50 is minus log10 of the molar concentration; only the number is needed.

Use these answered entries as a reference point.
{"Smiles String": "CCOc1ccc(F)c(CCNC(=S)Nc2ncc(C(F)(F)F)s2)c1Cl", "Measure Name": "pIC50", "Test Result": 5.15}
{"Smiles String": "S=C(NCCc1nc2ccccc2[nH]1)Nc1ccc(Br)cn1", "Measure Name": "pIC50", "Test Result": 5.73}
{"Smiles String": "Cc1cc2nn(CCNC(=S)Nc3ccc(Br)cn3)nc2cc1C", "Measure Name": "pIC50", "Test Result": 7.00}
{"Smiles String": "S=C(NCCn1nc2ccccc2n1)Nc1ccc(Br)cn1", "Measure Name": "pIC50", "Test Result": 7.00}

Moving on to another compound below.
GET /value?item= CC(C)=CCN1Cc2cc(Cl)cc3[nH]c(=S)n(c23)C[C@@H]1C &field=pIC50 returns 4.89
